assay: NCI Yeast Anticancer Drug Screen. Data for the rad50 strain (AID 155);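 note: 0% = growth of vehicle-only cultures of the same strain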; settings: S. cerevisiae rad50 strain growth inhibition; at 50.0 µM; stronger effect = higher value
The panel holds about 79,000 compounds, 15% with a hit somewhere; the sample as a whole holds those more often.
measuredProperty: growth inhibition (%)
Entry rule: numbers only, all in %.

growth inhibition reported for this compound CCCCCCCCCCCCCCCCNC(C)c1ccccc1 (stereo unspecified) : 98.1

Data point: OCC(O)C(O)C(O)C(O)c1cnn(-c2ccccc2)n1 (stereo unspecified) ; growth inhibition = 10.8

Measured growth inhibition of `O=C1c2ccc(O)c(O)c2C(=O)c2cccc(O)c21` : 28.1

The reported growth inhibition of the compound `COc1ccc(OC)c(/C=C/c2ccnc3ccccc23)c1` was 96.3

Sample CN(/N=C\c1ccc(Cl)cc1)C(c1ccc(Cl)cc1)N(C)/N=C/c1ccc(Cl)cc1 (stereo unspecified) ; growth inhibition observed: 29

Sample `CC1=C(C(=O)Nc2ccccc2C)C(c2ccccc2F)C(C(=O)Nc2ccccc2C)=C(C)N1` ; growth inhibition observed: 29.6

* * *

test: NCI Yeast Anticancer Drug Screen. Data for the rad50 strain (AID 155);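 note: 0% = growth of vehicle-only cultures of the same strain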; conditions: S. cerevisiae rad50 strain growth inhibition; at 50.0 µM
The panel holds about 79,000 compounds, 15% with a hit somewhere; the sample as a whole holds those more often. Active and inactive are the calls of the source. Cut-off read from the data, not from the text of the source: active = growth inhibition above about 70%; inactive = the rest.
// classify into 1 (yes) (active), 0 (no) (inactive)

Query block: So what was the verdict on `Cc1ccc(-c2c(N)[n+]([O-])c3ccccc3[n+]2[O-])cc1` in this test?
Result block: 1 (yes)

Query block: Per the assay record, what outcome was assigned to `CCCCC1=NCCc2c1cc1c([nH]c3ccccc31)c2C` ?
Result block: 0 (no)

Query block: Lab log entry: `[Cl-].[La+3].[O-]/N=C(\c1ccccc1)c1ccccn1.[O-]/N=C(\c1ccccc1)c1ccccn1.[O-]/N=C(\c1ccccc1)c1ccccn1` — outcome as called in the assay?
Result block: 0 (no)

Query block: Outcome logged for C=C1CC2(C[C@@H](c3ccccc3)O[C@@H](c3ccccc3)C2)OC1=O (stereo not given in full) in this assay:
Result block: 1 (yes)

Query block: So what was the verdict on Cc1cc(Oc2nc(Cl)nc(C(Cl)(Cl)Cl)c2Cl)cc(C)c1N(C)C (tested in a mixture with another compound) in this test?
Result block: 1 (yes)

Query block: Lab log entry: `CCC=Nc1c(O)cc(-c2ccccc2)n(C)c1=O` — outcome as called in the assay?
Result block: 1 (yes)

Query block: Status in this test for `Cc1cc(C)c(S(=O)(=O)n2ccnc2)c(C)c1` ?
Result block: 0 (no)

Query block: What classification did Fc1cccc(C2SCc3nc4ccccc4n32)c1F (stereo not given) end up with in this test?
Result block: 0 (no)

Query block: Tell me the recorded outcome of this test for `CC(C)OC(=O)c1ccc(NC(=O)CCl)cc1` .
Result block: 0 (no)

Query block: Please share the test call associated with `Oc1c(N(Cc2ccccc2)Cc2ccccc2)ccc2cccnc12` .
Result block: 1 (yes)

* * *

Assay: NCI Yeast Anticancer Drug Screen. Data for the sgs1 mgt1 strain (AID 161);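 note: 0% = growth of cultures given vehicle only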
Conditions: S. cerevisiae sgs1 mgt1 strain, at 50.0 µM, stronger effect = higher value
Experimental: Growth inhibition of yeast strains with defined genetic alterations is measured as a screen for potential anti-cancer activity. Selected strains with alterations in DNA damage repair or cell cycle control were exposed to compounds and growth inhibition was measured relative to vehicle treated controls. The strain used in this assay is sgs1 mgt1
The panel holds about 79,000 compounds, 15% with a hit somewhere; the sample as a whole holds those more often.
measuredProperty: growth inhibition (%)
Dear colleague, please return just the value in %, with no unit written.

Lookup result for `C=CCOc1c(CCC)cc(CN)cc1CCC` ; measured growth inhibition: 24.6

Briefly, growth inhibition measured for `Nc1ccc2nc(N)sc2c1` : 18.5

GET /value?item= `O=C(O)CCCCCCCCC(=O)O.[Ag]` &field=growth inhibition returns 93.8

In plain terms, `CCOC(=O)C(=Cc1ccccc1Br)C(=O)OCC` has a documented growth inhibition of 96.5

Lab note: `Cn1c2nc(-[n+]3ccc4ccccc4c3)nc-2c([O-])n(C)c1=O` gave growth inhibition of -13.1

Entry `C[n+]1c(/C=C/c2ccccc2Cl)sc2ccccc21` , growth inhibition reported as 98.2

// recorded growth inhibition for `Nc1ccc(-c2ccc(N)cc2S(=O)(=O)O)c(S(=O)(=O)O)c1` : -5.9

So for C=C1C(=O)OC2CC(C)C3C=CC(=O)C3CC12 (stereo unspecified) , the logged growth inhibition turned out to be 91.3

For reference, reported growth inhibition for `CCN(CC)CCCNc1nc(NCCCN(CC)CC)c2nc(-c3ccccc3)c(-c3ccccc3)nc2n1` stands at 63.8

Reported growth inhibition ( `CC(C)OP(=O)(CCCCCCCCC/C=C/c1ccc2c(c1)OCCOCCOCCOCCO2)OC(C)C` ) = 98.2

According to the records, this compound `CCCCCCCCCCCCCCSC(=NCC)NCC` displays growth inhibition of 99.2

// growth inhibition value for `CC(=O)Oc1ccc(C)cc1C(C)(C)C` : 59.1

Form: compound = O=[N+]([O-])C1CCC(C2=CSC3CCCCC3N2)CC1 (stereo unspecified) ; growth inhibition = 38.8

Reported growth inhibition of `CSc1cc(-c2cc3ccccc3o2)oc(=O)c1C#N` : -24.4

// recorded growth inhibition for `O=[N+]([O-])c1ccc(O)c(/C=N\NC(=S)Nc2ccc3cn[nH]c3c2)c1` : 41.2

The compound identified as O=C(c1ccc(Br)cc1)C1N=NCC1c1ccccc1 (stereo unspecified) registered its growth inhibition at 64.7

What the record says about `O=C(NC1(OC(=O)c2ccc(Cl)cc2)CC1)c1ccc(Cl)cc1` : growth inhibition is 95.5

// recorded growth inhibition for `Cc1cc(C)c(S(=O)(=O)n2ccnc2)c(C)c1` : -6.05

growth inhibition recorded for this compound, `Cc1cc(C)c(O)c(Cc2cc(Cl)cc(Cc3cc(C)cc(C)c3O)c2O)c1` , is 95.3

For this compound ( `COc1ccc(-c2nc(N)n(C)c2SSc2c(-c3ccc(OC)cc3)nc(N)n2C)cc1` ), measured growth inhibition is 2.5

For record CC1=NC(C)C(C)S1 (stereo unspecified) the listed growth inhibition is -2.5

For `NC(=O)C12OC3CC(CC(C3)O1)O2` the compound record lists growth inhibition as 11.3

Field growth inhibition (entry `CC(C)OC(=O)CCCCCC1CCCCC1` ) reads 1.4

Entry OC1(c2ccccc2)CCC2CCCCC2C1 (stereo unspecified) — recorded growth inhibition = 90.5

Entry under test: `S=C(S)NCCN1CCNCC1` . Its growth inhibition was -27.9

According to the records, this compound `C1Cc2c3c4c(c5c2C(C1)CCC5)CCCC4CCC3` displays growth inhibition of 0
